Readings of Emax for the listed compounds
# Study System: ΔF508 CFTR (Homo sapiens, UniProt P13569, DEL508-508)
# Construct: expressed in transfected cells
# Sequence (P13569 with tags, fused parts or gaps DEL508-508): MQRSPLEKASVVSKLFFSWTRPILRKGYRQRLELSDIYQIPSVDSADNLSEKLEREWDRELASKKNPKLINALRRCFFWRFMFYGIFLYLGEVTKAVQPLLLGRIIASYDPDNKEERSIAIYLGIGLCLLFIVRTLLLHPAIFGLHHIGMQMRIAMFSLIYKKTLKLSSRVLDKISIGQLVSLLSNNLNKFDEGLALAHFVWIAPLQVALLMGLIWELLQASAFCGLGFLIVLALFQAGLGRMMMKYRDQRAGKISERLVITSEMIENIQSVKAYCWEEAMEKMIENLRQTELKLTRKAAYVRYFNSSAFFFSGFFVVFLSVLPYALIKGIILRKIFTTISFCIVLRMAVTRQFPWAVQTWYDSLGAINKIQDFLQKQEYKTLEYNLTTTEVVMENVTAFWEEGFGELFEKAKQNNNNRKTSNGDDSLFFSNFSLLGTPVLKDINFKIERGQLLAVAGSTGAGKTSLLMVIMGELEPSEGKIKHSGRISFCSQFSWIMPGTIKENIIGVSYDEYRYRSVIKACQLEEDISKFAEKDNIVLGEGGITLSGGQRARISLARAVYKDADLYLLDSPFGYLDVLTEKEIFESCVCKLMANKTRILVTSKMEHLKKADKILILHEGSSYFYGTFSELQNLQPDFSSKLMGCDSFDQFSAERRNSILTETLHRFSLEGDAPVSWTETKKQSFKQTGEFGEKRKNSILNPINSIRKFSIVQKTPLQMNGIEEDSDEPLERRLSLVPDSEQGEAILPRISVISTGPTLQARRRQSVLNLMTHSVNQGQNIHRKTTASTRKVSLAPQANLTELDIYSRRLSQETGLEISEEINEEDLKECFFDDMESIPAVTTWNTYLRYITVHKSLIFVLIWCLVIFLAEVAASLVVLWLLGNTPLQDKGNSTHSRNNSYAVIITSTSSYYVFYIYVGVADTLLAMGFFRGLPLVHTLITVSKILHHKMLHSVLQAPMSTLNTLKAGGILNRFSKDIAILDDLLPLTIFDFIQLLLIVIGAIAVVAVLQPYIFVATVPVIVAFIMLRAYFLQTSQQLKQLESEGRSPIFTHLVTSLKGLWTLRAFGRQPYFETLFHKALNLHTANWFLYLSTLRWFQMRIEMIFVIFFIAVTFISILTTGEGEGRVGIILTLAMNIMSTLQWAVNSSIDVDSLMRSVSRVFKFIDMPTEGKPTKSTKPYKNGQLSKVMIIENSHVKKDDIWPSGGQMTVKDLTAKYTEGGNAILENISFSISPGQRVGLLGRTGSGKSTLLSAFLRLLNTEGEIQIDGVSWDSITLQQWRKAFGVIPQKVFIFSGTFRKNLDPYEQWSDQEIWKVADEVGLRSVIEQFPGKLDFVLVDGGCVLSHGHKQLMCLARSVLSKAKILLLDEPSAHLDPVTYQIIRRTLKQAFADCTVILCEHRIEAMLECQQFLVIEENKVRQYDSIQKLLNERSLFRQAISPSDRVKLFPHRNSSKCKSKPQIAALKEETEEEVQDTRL
# Assay Notes: MQAE chloride transport assay in C127 cells expressing ΔF508 CFTR
# Format: cell-based, murine
# Conditions Used: C127, plateau level in activity at high compound concentration, as a percentage of the low temperature response; read-out: % of Maximal Response
Observable: Emax (%)

{"Compound": "CCCCCc1ccc(NC(=O)[C@@H]2Cc3ccccc3CN2C(=O)c2cccc(OCc3ccccc3)c2)cc1", "Observable": "Emax", "Unit Info": "%", "Reported": 72}
{"Compound": "O=C(Nc1nccs1)C1Cc2ccccc2CN1C(=O)c1cccc(Oc2ccccc2)c1 (racemic)", "Observable": "Emax", "Unit Info": "%", "Reported": 59}
{"Compound": "CC1c2ccccc2CN(C(=O)c2cccc(Oc3ccccc3)c2)C1C(=O)Nc1ccc(Cl)cc1 (single isomer, unassigned)", "Observable": "Emax", "Unit Info": "%", "Reported": 59}
{"Compound": "CCCCCc1ccc(NC(=O)[C@@H]2Cc3ccccc3CN2C(=O)c2cccc(OC(CC)CC)c2)cc1", "Observable": "Emax", "Unit Info": "%", "Reported": 84}

====

# Study System: ΔF508 CFTR (Homo sapiens, UniProt P13569, DEL508-508)
# Construct: expressed in transfected cells
# Assay Notes: MQAE chloride transport assay in C127 cells expressing ΔF508 CFTR
# Assay type: cell-based, murine
# Conditions Used: C127, plateau level in activity at high compound concentration, as a percentage of the low temperature response; read-out: % of Maximal Response
Answer Criterion not met if Emax is under 80%, and Criterion met if it is 80% or more.

{"Molecule": "CCCCCc1ccc(NC(=O)[C@@H]2Cc3ccccc3CN2C(=O)c2cc(Oc3cccnc3)ccn2)cc1", "Label Class": "Criterion not met"}
{"Molecule": "CCCCCc1ccc(NC(=O)[C@@H]2Cc3ccccc3CN2C(=O)c2ccc(C)c(OC(C)C)c2)cc1", "Label Class": "Criterion met"}
{"Molecule": "CCCCCc1ccc(NC(=O)[C@@H]2Cc3ccccc3CN2C(=O)c2cccc(Oc3ccccc3)c2)cc1", "Label Class": "Criterion not met"}
{"Molecule": "CCCCCCN(C(C)=O)c1ccc(NC(=O)[C@@H]2Cc3ccccc3CN2C(=O)c2cccc(Oc3ccccc3)c2)cc1", "Label Class": "Criterion not met"}
{"Molecule": "CCCCCc1ccc(NC(=O)C2Cc3ccccc3CN2C(=O)c2cccc(OCc3ccccc3)c2)cc1 (racemic)", "Label Class": "Criterion met"}
{"Molecule": "CCCCCc1ccc(NC(=O)[C@@H]2Cc3ccccc3CN2C(=O)c2cc(OC)c(OC)c(OC)c2)cc1", "Label Class": "Criterion not met"}
{"Molecule": "CCCCCc1ccc(NC(=O)[C@@H]2Cc3ccccc3CN2C(=O)c2cc(Cl)cc(Cl)c2)cc1", "Label Class": "Criterion not met"}
{"Molecule": "CCCCCc1ccc(NC(=O)[C@@H]2Cc3ccccc3CN2C(=O)c2cccc(OC(C)C(C)C)c2)cc1 (some centres unmarked)", "Label Class": "Criterion met"}
{"Molecule": "CC(=O)N(C)c1ccc(NC(=O)[C@@H]2Cc3ccccc3CN2C(=O)c2cccc(Oc3ccccc3)c2)cc1", "Label Class": "Criterion not met"}
{"Molecule": "CCCCCc1ccc(NC(=O)[C@@H]2Cc3ccccc3CN2C(=O)c2ccc(OC)c(OC)c2)cc1", "Label Class": "Criterion met"}
{"Molecule": "O=C(Nc1ccc(Cl)cc1)C1Cc2ccccc2CN1C(=O)c1cccc(OCc2ccccc2)c1 (single isomer, unassigned; (+))", "Label Class": "Criterion met"}
{"Molecule": "CCCCCc1ccc(NC(=O)[C@@H]2Cc3ccccc3CN2C(=O)c2ccc(OC)c(Oc3ccccc3)c2)cc1", "Label Class": "Criterion not met"}
